List of shrunken log2 fold change values.
Tested on: Escherichia coli TOP10
Test: shrunken log2 fold change of peptide-encoding DNA abundance (4.5 h post-induction vs induction); higher = less antimicrobial activity (less host growth inhibition)
Details: time post-induction: 4.5 h; library: site-saturation at positions 5, 18, 19, 20

| chain-sequence | shrunken log2 fold change |
| --- | --- |
| RRIRSRPPRLPRPRPRPVFGPRP | 0.0263 |
| RRIRPRPPRLPRPRPRPWYMPRP | -0.247 |
| RRIRKRPPRLPRPRPRPQGWPRP | 0.116 |
| RRIRSRPPRLPRPRPRPPGAPRP | 0.61 |
| RRIRTRPPRLPRPRPRPTGRPRP | 0.099 |
| RRIRRRPPRLPRPRPRPYRVPRP | -0.0172 |
| RRIRLRPPRLPRPRPRPVMQPRP | 0.00383 |
| RRIRHRPPRLPRPRPRPWLDPRP | -0.377 |

----------
Test system: Escherichia coli TOP10;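 note: peptides expressed intracellularly from a pBAD plasmid library in pooled LB shake-flask culture, induced with 0.3% L-arabinose, DNA abundance read by NGS, three biological replicates, DESeq2 with apeglm shrinkage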
Experiment: shrunken log2 fold change of peptide-encoding DNA abundance (4.5 h post-induction vs induction); higher = less antimicrobial activity (less host growth inhibition)
Settings: time post-induction: 4.5 h; library: site-saturation at positions 5, 18, 19, 20
Measured shrunken log2 fold change accompanies every entry in the list below.

| chain-sequence | shrunken log2 fold change |
| --- | --- |
| RRIRYRPPRLPRPRPRPNQHPRP | -1.18 |
| RRIRQRPPRLPRPRPRPNRHPRP | 0.115 |
| RRIRIRPPRLPRPRPRPFACPRP | -0.0925 |
| RRIRWRPPRLPRPRPRPGTYPRP | -0.127 |
| RRIRGRPPRLPRPRPRPEMWPRP | 1.76 |
| RRIRLRPPRLPRPRPRPTCPPRP | 0.0694 |
| RRIRLRPPRLPRPRPRPTTKPRP | 0.155 |
| RRIRHRPPRLPRPRPRPSNMPRP | -1.48 |
| RRIRWRPPRLPRPRPRPKQSPRP | 0.698 |
| RRIRRRPPRLPRPRPRPIVAPRP | 0.174 |
| RRIRARPPRLPRPRPRPKFDPRP | 0.376 |
| RRIRERPPRLPRPRPRPDPYPRP | -0.0291 |
| RRIRSRPPRLPRPRPRPHFRPRP | -0.197 |
| RRIRIRPPRLPRPRPRPNMIPRP | -0.225 |
| RRIRLRPPRLPRPRPRPAGYPRP | -0.0817 |
| RRIRHRPPRLPRPRPRPGDKPRP | -0.0257 |
| RRIRNRPPRLPRPRPRPNMPPRP | -0.407 |
| RRIRYRPPRLPRPRPRPAWSPRP | -0.292 |
| RRIRNRPPRLPRPRPRPFDGPRP | -0.0509 |
| RRIRIRPPRLPRPRPRPWAIPRP | -0.0196 |
| RRIRARPPRLPRPRPRPMCLPRP | 0.0284 |
| RRIRSRPPRLPRPRPRPDGPPRP | 0.0211 |
| RRIRRRPPRLPRPRPRPKVIPRP | -0.256 |
| RRIRHRPPRLPRPRPRPPTVPRP | 0.184 |
| RRIRWRPPRLPRPRPRPNYCPRP | -0.113 |
| RRIRIRPPRLPRPRPRPGLDPRP | 0.0575 |
| RRIRPRPPRLPRPRPRPHRVPRP | 0.164 |
| RRIRCRPPRLPRPRPRPNNTPRP | -0.737 |
| RRIRQRPPRLPRPRPRPMYVPRP | -0.0439 |
| RRIRQRPPRLPRPRPRPPRDPRP | 1.25 |
| RRIRWRPPRLPRPRPRPKTIPRP | 0.118 |
| RRIRQRPPRLPRPRPRPHTNPRP | -0.814 |
